I'd appreciate it if you could supply protein stability index values for the items below.
Assay: protein stability index of a GFP-peptide fusion (yeast GPS) (PSI 1-4); higher = more stable; sorted into four equal gates, so the index is relative within each strain
Conditions: ubr1∆
Enter the number alone.

Incoming: Name the recorded protein stability index for NQSNLNGGNNTQQPGTN [SNF2] .
Outgoing: 3.04

Incoming: Name the recorded protein stability index for SKILSQAPSELELQVAK [RPS7B] .
Outgoing: 3

Incoming: Name the recorded protein stability index for LKKFRESLVHSALCILK [BRR2] .
Outgoing: 2.97

Incoming: Name the recorded protein stability index for LIQDLLHRLTPKNVKGE [RPN1] .
Outgoing: 3.01

Incoming: Name the recorded protein stability index for ILDIVINNPVNLTIHFG [FAS1] .
Outgoing: 3.02

Incoming: Name the recorded protein stability index for EEVNRCYLRWQHLRNEH [SNF2] .
Outgoing: 3.05

Incoming: Name the recorded protein stability index for TLERVHLSYCSNLTIYP [GRR1] .
Outgoing: 3

Incoming: Name the recorded protein stability index for SDPLTVFSESCSNESFA [SNU114] .
Outgoing: 2.96

Incoming: Name the recorded protein stability index for CLQDALDAIDDFIQLKQ [SSN2] .
Outgoing: 2.92

Incoming: Name the recorded protein stability index for RQQKLLLETKLRQQYEI [SWI1] .
Outgoing: 2.91
